- Tested on: Collagenase
- protocol-notes: Collagenase activity in culture media, chromogenic substrate hydrolysis
- Assay type: biochemical
- experimental-parameters: aliquots of media, five days, plain matrix = 100
Starred links: 1 amine or outer side, 2 acyl side, 3 side chain; linkers in the order of their positions; H or OH if unused. Positions of bridges follow the written chain, without caps; N, C: chain ends. Non-standard residues stand in square brackets, D forms with d. Residues, ends and D or L forms follow the SMILES beside them. Chains are numbered I, II in the order given. Actinocin(9to1) = Cc1c2oc3c(C)ccc(C(=O)[*:1])c3nc-2c(C(=O)[*:2])c(N)c1=O; NMeV = CN[C@H](C(=O)O)C(C)C; Sar = CNCC(=O)O
parameter-measured: Collagenase Activity % (%)
Numbers only, in %.

Quick request: Collagenase Activity % for each listed item, please.
1. Cc1c2oc3c(C)ccc(C(=O)N[C@@H]4C(=O)N[C@H](C(C)C)C(=O)N5CCC[C@H]5C(=O)N(C)CC(=O)N(C)[C@@H](C(C)C)C(=O)O[C@@H]4C)c3nc-2c(C(=O)N[C@@H]2C(=O)N[C@H](C(C)C)C(=O)N3CCC[C@H]3C(=O)N(C)CC(=O)N(C)[C@@H](C(C)C)C(=O)O[C@@H]2C)c(N)c1=O [Actinomycin D] (I: T[dV]P[Sar][NMeV] / II: T[dV]P[Sar][NMeV]; ester I:1-I:C, II:1-II:C; linker I:N-II:N via Actinocin(9to1))
2. CO[C@H]1C[C@@H]2CC[C@@H](C)[C@@](O)(O2)C(=O)C(=O)N2CCCC[C@H]2C(=O)O[C@H]([C@H](C)C[C@@H]2CC[C@@H](O)[C@H](OC)C2)CC(=O)[C@H](C)/C=C(\C)[C@@H](O)[C@@H](OC)C(=O)[C@H](C)C[C@H](C)/C=C/C=C/C=C/1C [Rapamycin]

[55, 137]

Quick request: Collagenase Activity % for each listed item, please.
1. CN(Cc1cnc2nc(N)nc(N)c2n1)c1ccc(C(=O)N[C@@H](CCC(=O)O)C(=O)O)cc1 [Methotrexate]
2. CC(=O)O[C@H]1C(=O)[C@@]2(C)[C@H]([C@H](OC(=O)c3ccccc3)[C@]3(O)C[C@H](OC(=O)[C@H](O)[C@@H](NC(=O)c4ccccc4)c4ccccc4)C(C)=C1C3(C)C)[C@]1(OC(C)=O)CO[C@@H]1C[C@@H]2O [Paclitaxel]

[23, 98]
